- system-tested: UniProt:Q96RI0
- protocol-description: PAR4 FLIPR assay: antagonism of agonist-peptide-induced calcium mobilization in PAR4-expressing HEK293 cells
- run-conditions: H-Ala-Phe(4-F)-[…]NH2-induced intracellular calcium mobilization, 11-point curves
Measured IC50 by item
Use nM as the unit, but write only the number.

Reference set (3 entries):
compound=CNC(=O)c1ccc(NC(=O)O[C@H](C)[C@H](C)Oc2cc3sc(-c4cc(C)cc5nc(OC)cnc45)nc3cc2F)cn1 observed_value=1.5
compound=COc1cnc2c(-c3nc4cc(C)c(OC)cc4s3)cc(C)cc2n1 observed_value=18
compound=COCc1cnc2c(-c3nc4c(C)cc(OCCNS(=O)(=O)c5ccccc5F)cc4s3)cc(C)cc2n1 observed_value=1.1

Query :: Need IC50, item COCc1cnc2c(-c3nc4cc(F)c(OC)nc4s3)cc(C)cc2n1
Result :: 2.7

Query :: Recorded IC50 for COc1cncc(NC(=O)O[C@H](C)[C@H](C)Oc2cc3sc(-c4cc(Cl)cc5cc(OC)cnc45)nc3c(Cl)c2F)c1 , please?
Result :: 3.5

Query :: Record request: IC50 value, item COCc1cnc2c(-c3nc4c(C)cc(OCc5ccccc5)cc4s3)cc(C)cc2n1
Result :: 0.9

Query :: May I ask what IC50 has been recorded for C=Cc1cnc2c(-c3cc4ccccc4o3)cc(C)cc2n1 ?
Result :: 890

Query :: Return reported IC50; argument: COCc1cnc2c(-c3nc4c(C(O)c5ccccn5)cc(OC)cc4s3)cc(C)cc2n1 (centres unmarked)
Result :: 4.5

###

- system-tested: human PAR4 (Homo sapiens, UniProt Q96RI0)
- Sequence (Q96RI0 18-385): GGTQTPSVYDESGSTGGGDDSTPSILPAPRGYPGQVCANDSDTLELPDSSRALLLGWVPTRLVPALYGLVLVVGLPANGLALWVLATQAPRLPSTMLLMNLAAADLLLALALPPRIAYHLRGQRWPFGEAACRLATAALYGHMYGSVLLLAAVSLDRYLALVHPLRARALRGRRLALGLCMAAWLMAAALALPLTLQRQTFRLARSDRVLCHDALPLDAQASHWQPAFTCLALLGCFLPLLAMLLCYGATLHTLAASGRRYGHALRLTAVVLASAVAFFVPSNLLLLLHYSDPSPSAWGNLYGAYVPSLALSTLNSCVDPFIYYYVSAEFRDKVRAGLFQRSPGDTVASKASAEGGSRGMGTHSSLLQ
- protocol-description: PAR4 FLIPR assay: antagonism of agonist-peptide-induced calcium mobilization in PAR4-expressing HEK293 cells
- run-conditions: H-Ala-Phe(4-F)-[…]NH2-induced intracellular calcium mobilization, 11-point curves
// reported log10 IC50 for each item listed
Recorded IC50 (log10, nM)

See these solved cases before continuing.
compound="Cc1cc(-c2nc3cc(F)ccc3s2)c2ncc(OC(F)F)nc2c1 [Example 60]" observed_value=1.28
compound="COc1cc(C(O)C2(C)CCCCC2)c2nc(-c3cc(C)cc4nc(OC)cnc34)sc2c1 (stereo not shown) [Example 672]" observed_value=0.28

Query :: # log10 IC50 lookup, item COc1cc(C)c2nc(-c3cc(C)cc4nc(COc5ccccc5)cnc34)sc2c1 [Example 187]
Result :: 2.59

Query :: Which log10 IC50 value belongs to Cc1cc(-c2nc3c(s2)CCC3)c2ncc(OC(F)F)nc2c1 [Example 136] ?
Result :: 1.46

Query :: # query: log10 IC50 of entry COc1cnc2c(-c3nc4c(Cl)c(F)c(OCCOC(=O)NCc5ccccn5)cc4s3)cc(C)cc2n1 [Example 396]
Result :: 0.66

Query :: What measured log10 IC50 goes with COCc1cnc2c(-c3nc4c(C)cc(OCCNC(=O)OCc5ccccc5)cc4s3)cc(C)cc2n1 [Example 92] ?
Result :: 0.30

Query :: # lookup: log10 IC50 of COc1ccc(NC(=O)OCCOc2cc3sc(-c4cc(C)cc5nc(OC)cnc45)nc3c(Cl)c2F)cn1 [Example 332]
Result :: 0.38

###

- system-tested: human PAR4 (Homo sapiens)
- protocol-description: PAR4 FLIPR assay: antagonism of agonist-peptide-induced calcium mobilization in PAR4-expressing HEK293 cells
- run-conditions: H-Ala-Phe(4-F)-[…]NH2-induced intracellular calcium mobilization, 11-point curves
measurement-label: pIC50
# reply with the number alone; pIC50 is -log10 of concentration in mol/L

compound=COc1cnc2c(-c3nc4cc(F)c(OC[C@@H](C)OC(=O)Nc5ccc(C(=O)NC[C@@H](C)O)nc5)nc4s3)cc(C)cc2n1 observed_value=8.62

Query :: Recorded pIC50 of COCc1cnc2c(-c3nc4c(Cl)cc(OCCNS(=O)(=O)c5ccc(F)cc5)cc4s3)cc(C)cc2n1 , please.
Result :: 9.70

Query :: Any idea what pIC50 was measured for COc1cnc2c(-c3nc4cc(F)c(O[C@@H](C)[C@@H](C)OC(=O)Nc5ccc(C)nn5)cc4s3)cc(C)cc2n1 ?
Result :: 7.49

Query :: # input compound: COc1cnc2c(-c3cc4cc(OC)c(F)c(Cl)c4o3)cc(C)cc2n1 ; wanted: its pIC50
Result :: 8.41

Query :: GET /values?readout=pIC50&item= COc1cnc2c(-c3nc4cc(F)c(O[C@@H](C)[C@@H](C)OC(=O)Nc5ccncc5)nc4s3)cc(C)cc2n1
Result :: 8.74

Query :: Recorded pIC50 for COc1cc(C(O)C2(C(F)(F)F)CCC2)c2nc(-c3cc(C)cc4nc(OC)cnc34)sc2c1 (stereo not drawn) [Example 669] , please?
Result :: 8.64

Query :: // lookup pIC50 for COc1cnc2c(-c3nc4cc(F)c(O[C@@H](C)[C@@H](C)OC(=O)Nc5ccnc(OCCC(C)(C)O)c5)nc4s3)cc(C)cc2n1
Result :: 8.77

Query :: Any idea what pIC50 was measured for C=Cc1cc(-c2nc3c(C)cc(OCCNS(=O)(=O)c4ccc(F)cc4)cc3s2)c2ncc(COC)nc2c1 ?
Result :: 8.85

Query :: Fill blank: measured pIC50 of the compound COCc1cnc2c(-c3nc4c(Cl)c(C)c(OC)cc4s3)cc(C)cc2n1 is ____.
Result :: 8.68

Query :: What does the record list as pIC50 for COCc1cnc2c(-c3nc4c(OCc5ccccc5)cc(OC)cc4s3)cc(C)cc2n1 ?
Result :: 8.00

Query :: Which pIC50 value is on record for COCc1cnc2c(-c3nc4c(C)c(C)c(OCCO)cc4s3)cc(C)cc2n1 ?
Result :: 8.24

Query :: So what's the measured pIC50 for this one? COC(=O)NCCOc1ccc(C)c2nc(-c3cc(C)cc4nc(OC(F)F)cnc34)sc12
Result :: 7.47

Query :: For the compound shown here, COc1cnc2c(-c3nc4c(CO)c(C)c(OC)cc4s3)cc(C)cc2n1 , give the reported pIC50.
Result :: 7.82

Query :: Request the reported pIC50 associated with COCc1cnc2c(-c3nc4c(C(O)C5CCCCC5)cc(OC)cc4s3)cc(C)cc2n1 (stereo not drawn)
Result :: 8.92

Query :: Recorded pIC50 for COCc1cnc2c(-c3nc4c(s3)CCCC4)cc(C)cc2n1 , please?
Result :: 9.52

Query :: Field request: pIC50 | item: COc1cnc2c(-c3nc4cc(F)c(O[C@@H](C)[C@@H](C)OC(=O)Nc5ccc(C(=O)NC[C@H](C)O)nc5)cc4s3)cc(C)cc2n1
Result :: 9.05

Query :: # query: pIC50 of entry COCc1cnc2c(-c3nc4ccc(Cl)cc4s3)cc(C)cc2n1
Result :: 8.24
